test-protocol: Biodistribution of ^111In-labelled fragments in CD1 nu/nu mice without tumours
Type: in vivo, mouse
condition-summary: CD1 nu/nu, mouse, intestines, iv, 100 kBq, total radioactivity, ^111In-labelled fragment ~100 kBq i.v. tail vein, mice without tumours, after 4 h; read-out: Biodistribution of fragment, Intestines
Where a SMILES comes first, the peptide text is derived from it. The star is where a group is joined. NODAGA = O=C(O)CN1CCN(CC(=O)O)CCN(C(CCC(=O)*)C(=O)O)CC1
Task for the reader: assign each of the following molecules its reported tissue uptake at 4 h.
Could you kindly put the unit after your number?

[in] Note down tissue uptake at 4 h recorded for CSCC[C@H](NC(=O)[C@H](Cc1ccc(O)cc1)NC(=O)[C@@H](N)CC(=O)O)C(=O)NCC(=O)N[C@@H](Cc1c[nH]c2ccccc12)C(=O)N[C@@H](CCSC)C(=O)N[C@@H](CC(=O)O)C(=O)N[C@@H](Cc1ccccc1)C(=O)N[C@@H](CCCCNC(=O)CCC(C(=O)O)N1CCN(CC(=O)O)CCN(CC(=O)O)CC1)C(N)=O (some centres unmarked)
[out] 0.15 %ID/g

[in] Give the measured tissue uptake at 4 h for NC(=O)[C@H](CCCCNC(=O)CCC(C(=O)O)N1CCN(CC(=O)O)CCN(CC(=O)O)CC1)NC(=O)[C@H](CO)NC(=O)[C@@H]1CCCN1C(=O)[C@@H]1CCCN1C(=O)[C@@H]1CCCN1C(=O)[C@H](CCC(=O)O)NC(=O)[C@@H](N)CC(=O)O (some centres unmarked) [CL3-F1] (H-DEPPPSK(NODAGA)-NH2)
[out] 0.04 %ID/g

###

test-protocol: Biodistribution of ^111In-labelled fragments in CD1 nu/nu mice without tumours
Type: in vivo, mouse
condition-summary: CD1 nu/nu, mouse, bone, iv, 100 kBq, total radioactivity, ^111In-labelled fragment ~100 kBq i.v. tail vein, mice without tumours, after 4 h; read-out: Biodistribution of fragment, Bone
Experimental: Biodistribution of ^111In-PSI-CLNOD1, ^111In-PSI-CLNOD2, ^111In-PSI-CLNOD3 and ^111In-Ex4NOD40 were performed in CD 1 nu/nu mice with tumour xenografts that were prepared as previously described. […] Blood, heart, lungs, spleen, kidneys, pancreas, stomach, intestine, liver, muscle, bone and tumour were removed, weighted and activity determined in a γ-counter (Packard Cobra II Auto Gamma, Perkin Elmer, Switzerland). […]
readout-type: tissue uptake at 4 h (%ID/g)
Field: numeric (%ID/g). Do not append units.

[in] Provide measured tissue uptake at 4 h value, entry: CSCC[C@H](NC(=O)[C@H](Cc1ccc(O)cc1)NC(=O)[C@@H](N)CC(=O)O)C(=O)NCC(=O)N[C@@H](Cc1c[nH]c2ccccc12)C(=O)N[C@@H](CCSC)C(=O)N[C@@H](CC(=O)O)C(=O)N[C@@H](Cc1ccccc1)C(=O)N[C@@H](CCCCNC(=O)CCC(C(=O)O)N1CCN(CC(=O)O)CCN(CC(=O)O)CC1)C(N)=O (stereo partly shown)
[out] 0.06

###

test-protocol: Biodistribution of ^111In-labelled fragments in CD1 nu/nu mice without tumours
Type: in vivo, mouse
condition-summary: CD1 nu/nu, mouse, in vivo, iv, 100 kBq, total radioactivity, Biodistribution of fragment, Intestines
Where a SMILES comes first, the peptide text is derived from it. The star is where a group is joined. NODAGA = O=C(O)CN1CCN(CC(=O)O)CCN(C(CCC(=O)*)C(=O)O)CC1
readout-type: tissue uptake at 4 h (%ID/g)
A number alone suffices; assume %ID/g.

[in] Return the recorded tissue uptake at 4 h value; entry: NC(=O)[C@@H](N)CCCCNC(=O)CCC(C(=O)O)N1CCN(CC(=O)O)CCN(CC(=O)O)CC1 (some centres unmarked)
[out] 0.09

[in] Using known records, supply tissue uptake at 4 h for CC(C)[C@H](NC(=O)[C@H](C)NC(=O)[C@H](CCC(=O)O)NC(=O)[C@@H](N)CCC(=O)O)C(=O)N[C@@H](CCCCNC(=O)CCC(C(=O)O)N1CCN(CC(=O)O)CCN(CC(=O)O)CC1)C(N)=O (some centres unmarked) [CL1-F1] (H-EEAVK(NODAGA)-NH2)
[out] 0.22

[in] Give the reported tissue uptake at 4 h for this compound. CC(C)[C@H](NC(=O)[C@H](C)NC(=O)[C@@H](N)CCC(=O)O)C(=O)N[C@@H](CCCCNC(=O)CCC(C(=O)O)N1CCN(CC(=O)O)CCN(CC(=O)O)CC1)C(N)=O (some centres unmarked) [CL1-F2] (H-EAVK(NODAGA)-NH2)
[out] 0.1

[in] Name the recorded tissue uptake at 4 h of the item NC(=O)[C@H](CCCCNC(=O)CCC(C(=O)O)N1CCN(CC(=O)O)CCN(CC(=O)O)CC1)NC(=O)[C@H](Cc1ccccc1)NC(=O)[C@@H](N)CC(=O)O (some centres unmarked) in your answer.
[out] 0.14

[in] Given NC(=O)[C@H](CCCCNC(=O)CCC(C(=O)O)N1CCN(CC(=O)O)CCN(CC(=O)O)CC1)NC(=O)[C@H](CO)NC(=O)[C@@H]1CCCN1C(=O)[C@@H]1CCCN1C(=O)[C@@H]1CCCN1C(=O)[C@@H](N)CCC(=O)O (some centres unmarked) [CL3-F2] (H-EPPPSK(NODAGA)-NH2) , respond with its tissue uptake at 4 h.
[out] 0.1
